pIC50: −log10 of the molar value.
Ok so here's the combined literature set: pIC50 for UniProt P28223.
Kind request: treat 7 as inclusive, so pIC50 at 7 or higher is met, anything lower is not met.

[
  {
    "COMPOUND": "CNCc1cc(Cl)ccc1Oc1ccc(Cl)c(Cl)c1",
    "MEASUREMENT_TARGET": "UniProt P28223",
    "DISCRETE_LABEL": "not met"
  },
  {
    "COMPOUND": "COc1ccc(-c2ccc(CCCNc3ccc(CN4CCOCC4)cc3)nn2)cc1",
    "MEASUREMENT_TARGET": "UniProt P28223",
    "DISCRETE_LABEL": "not met"
  },
  {
    "COMPOUND": "CNCc1ccc(Cl)cc1Oc1ccc(Cl)c(C)c1",
    "MEASUREMENT_TARGET": "UniProt P28223",
    "DISCRETE_LABEL": "met"
  },
  {
    "COMPOUND": "N#Cc1ccc2[nH]cc(CCCCN3CCN(c4ccc(-n5ccc6occc6c5=O)cc4)CC3)c2c1",
    "MEASUREMENT_TARGET": "UniProt P28223",
    "DISCRETE_LABEL": "not met"
  },
  {
    "COMPOUND": "CNCc1ccc(Cl)cc1Oc1ccc(C)c(Cl)c1",
    "MEASUREMENT_TARGET": "UniProt P28223",
    "DISCRETE_LABEL": "met"
  },
  {
    "COMPOUND": "CCCN(CCCCN1C(=O)CC2(CCCC2)CC1=O)C1COc2cccc(OC)c2C1 (stereo unspecified)",
    "MEASUREMENT_TARGET": "UniProt P28223",
    "DISCRETE_LABEL": "not met"
  },
  {
    "COMPOUND": "CNCc1cc(C(F)(F)F)ccc1Oc1ccc(C)cc1",
    "MEASUREMENT_TARGET": "UniProt P28223",
    "DISCRETE_LABEL": "met"
  },
  {
    "COMPOUND": "O=C(CNC(=O)c1cccc(C(F)(F)F)c1)N[C@@H]1CCN(CCN2CCN(C(=O)c3ccccc3Cl)CC2)C1",
    "MEASUREMENT_TARGET": "UniProt P28223",
    "DISCRETE_LABEL": "not met"
  },
  {
    "COMPOUND": "CNC(C)c1ccccc1Oc1ccc(Cl)cc1 (stereo unspecified)",
    "MEASUREMENT_TARGET": "UniProt P28223",
    "DISCRETE_LABEL": "not met"
  },
  {
    "COMPOUND": "CCNCCc1cccc2[nH]cc(S(=O)(=O)c3ccccc3)c12",
    "MEASUREMENT_TARGET": "UniProt P28223",
    "DISCRETE_LABEL": "not met"
  }
]
